# UniProt P28845: pIC50 values follow
# Sequence (P28845 whole entry): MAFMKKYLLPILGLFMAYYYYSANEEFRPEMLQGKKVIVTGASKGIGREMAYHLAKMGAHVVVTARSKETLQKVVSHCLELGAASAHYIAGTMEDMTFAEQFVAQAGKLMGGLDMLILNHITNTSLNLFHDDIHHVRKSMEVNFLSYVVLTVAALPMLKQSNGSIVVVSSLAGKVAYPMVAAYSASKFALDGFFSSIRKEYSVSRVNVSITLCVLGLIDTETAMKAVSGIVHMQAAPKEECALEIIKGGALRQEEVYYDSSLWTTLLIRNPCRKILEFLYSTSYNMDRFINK
pIC50 here: minus log base 10 of the concentration, concentration in moles per litre.

Input: Given `Fc1ccccc1C1(c2nnc3n2CCCCCC3)CCCC1` , state its recorded pIC50.
Output: 9.00

Input: // repeat for `Cc1cccc(C2(c3nnc4n3CCCCCC4)CCCC2)c1` and report
Output: 8.00

Input: // repeat for `Clc1ccc(C2(c3nnc4n3CCCCCC4)CC2)cc1` and report
Output: 8.70

Input: // repeat for `F[C@H]1C[C@](c2ccc(Cl)cc2)(c2nnc(C3CC3)n2C2CC2)C1` and report
Output: 8.30

Input: // repeat for `c1ccc(C2(c3nnc4n3CCCCCC4)CCC2)cc1` and report
Output: 9.00

----------
So I've got a bunch of molecules here, and I need their pIC50 values.
Target chain: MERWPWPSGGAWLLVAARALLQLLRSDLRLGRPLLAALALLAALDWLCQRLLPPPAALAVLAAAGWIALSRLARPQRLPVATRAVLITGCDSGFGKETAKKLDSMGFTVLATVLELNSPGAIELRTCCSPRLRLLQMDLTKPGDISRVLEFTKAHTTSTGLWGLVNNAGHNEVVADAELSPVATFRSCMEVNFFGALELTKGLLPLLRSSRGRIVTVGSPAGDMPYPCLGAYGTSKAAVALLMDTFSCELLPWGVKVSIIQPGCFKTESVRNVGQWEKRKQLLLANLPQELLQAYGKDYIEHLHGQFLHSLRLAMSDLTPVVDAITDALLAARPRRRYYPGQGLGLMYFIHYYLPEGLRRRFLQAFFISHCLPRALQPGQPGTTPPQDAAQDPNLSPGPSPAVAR
pIC50: −log10 of the molar value.

Input: Given `Fc1ccccc1C1(c2nnc3n2CCCCCC3)CCC1` , state its recorded pIC50.
Output: > 5.40

Input: // repeat for `F[C@H]1C[C@@](c2ccc(Cl)cc2)(c2nnc(C3CC3)n2C2CC2)C1` and report
Output: < 5.40

Input: // repeat for `Cc1ccc(C2(c3nnc4n3CCCCCC4)CC2)cc1` and report
Output: < 5.40

Input: // repeat for `C1CCc2nnc(C34CC5CC(CC(C5)C3)C4)n2CC1` and report
Output: < 5.52

Input: // repeat for `Clc1ccc(C2(c3nnc4n3CCCCCC4)CC2)cc1` and report
Output: < 5.40

Input: // repeat for `FC(F)(F)c1ccccc1C1(c2nnc3n2CCCCCC3)CCC1` and report
Output: < 5.40
